Value source: paper PMC6218799

System: CYP2C19
Test: Cocktail method in rats: pharmacokinetics of probe drug omeprazole (CYP2C19 activity)
Assay type: in vivo
Details: male, Wistar, rat, plasma, iv, 10 mg/kg, positive group (phenobarbital 50 mg/kg ip 7 days), omeprazole 10 mg/kg iv
measured property: AUC(0-inf) (ng·h/mL)
Record the value in ng·h/mL, omitting the unit from your answer.

Exercise: Param item = COc1ccc2[nH]c([S+]([O-])Cc3ncc(C)c(OC)c3C)nc2c1 (stereo not shown) [Omeprazole, omeprazole] ; retrieve measured AUC(0-inf).
Key: 5340

* * *

System: CYP3A4
Assay: Cocktail method in rats: pharmacokinetics of probe drug midazolam (CYP3A4 activity)
Conditions: male, Wistar, rat, plasma, iv, 5 mg/kg, Cmax, Digeda group (Digeda-4 decoction 600 mg/kg ig 14 days), midazolam 5 mg/kg iv
measured property: Cmax
Write your answer as a measured quantity: the number, then the unit.

Exercise: Param item = Cc1ncc2n1-c1ccc(Cl)cc1C(c1ccccc1F)=NC2 ; retrieve measured Cmax.
Key: 2680 ng/mL

* * *

Tested on: CYP2C19
Assay: Cocktail method in rats: pharmacokinetics of probe drug omeprazole (CYP2C19 activity)
Type: in vivo
Conditions: male, Wistar, rat, plasma, iv, 10 mg/kg, Digeda group (Digeda-4 decoction 600 mg/kg ig 14 days), omeprazole 10 mg/kg iv
measured property: clearance (mL/min/kg)
Record the value in mL/min/kg, omitting the unit from your answer.

Exercise: Param item = COc1ccc2[nH]c([S+]([O-])Cc3ncc(C)c(OC)c3C)nc2c1 (stereo not shown) ; retrieve measured clearance.
Key: 4.9

* * *

System: CYP2C19
Assay: Cocktail method in rats: pharmacokinetics of probe drug omeprazole (CYP2C19 activity)
Assay type: in vivo
Settings: male, Wistar, rat, plasma, iv, 10 mg/kg, Digeda group (Digeda-4 decoction 600 mg/kg ig 14 days), omeprazole 10 mg/kg iv
measured property: AUC(0-inf) (ng·h/mL)
Record the value in ng·h/mL, omitting the unit from your answer.

Exercise: Query AUC(0-inf) on CYP2C19 for COc1ccc2[nH]c([S+]([O-])Cc3ncc(C)c(OC)c3C)nc2c1 (stereo not shown)
Key: 14200

* * *

Biological target: CYP1A2 (Rattus norvegicus, UniProt P04799)
Construct: from tissue; host or cells: whole animal, male Wistar rats (in vivo pharmacokinetics)
Sequence (P04799 1-513): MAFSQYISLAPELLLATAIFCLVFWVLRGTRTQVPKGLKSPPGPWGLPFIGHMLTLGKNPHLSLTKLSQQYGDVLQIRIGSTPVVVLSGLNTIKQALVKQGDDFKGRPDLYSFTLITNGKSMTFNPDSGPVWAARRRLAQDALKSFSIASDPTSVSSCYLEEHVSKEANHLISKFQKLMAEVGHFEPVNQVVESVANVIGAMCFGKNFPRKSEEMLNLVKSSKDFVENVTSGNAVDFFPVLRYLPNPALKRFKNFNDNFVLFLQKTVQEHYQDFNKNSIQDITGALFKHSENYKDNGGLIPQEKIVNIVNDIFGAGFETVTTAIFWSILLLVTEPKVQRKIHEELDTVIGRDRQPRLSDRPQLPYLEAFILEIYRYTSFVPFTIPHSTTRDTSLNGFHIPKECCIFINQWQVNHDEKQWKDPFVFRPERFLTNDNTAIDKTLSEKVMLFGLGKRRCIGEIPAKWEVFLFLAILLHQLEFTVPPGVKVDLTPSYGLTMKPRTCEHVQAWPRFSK
Assay: Cocktail method in rats: pharmacokinetics of probe drug theophylline (CYP1A2 activity)
Type: in vivo
Settings: male, Wistar, plasma, iv, 10 mg/kg, positive group (phenobarbital 50 mg/kg ip 7 days), theophylline 10 mg/kg iv
measured property: Cmax (ng/mL)
Record the value in ng/mL, omitting the unit from your answer.

Exercise: Query Cmax on CYP1A2 (Rattus norvegicus, UniProt P04799) for Cn1c(=O)c2[nH]cnc2n(C)c1=O [Theophylline, theophylline]
Key: 30000
